- Species on record: Rattus norvegicus
- TEST_DESCRIPTION: Open TG-GATES - Regimen: Single
- Assay type: toxicity, organism-based, Sprague-Dawley
- Set-up: regimen Single, gender Male, age 6 weeks
- CONDITION_SUMMARY: in vivo, po, 0 mg/kg, 24 h, tissue Plasma, route gavage, dose level Control
ENDPOINT_NAME: LDH
Respond with the figure and its unit, in that order.

Item CC[C@@H](CO)NCCN[C@@H](CC)CO [ETHAMBUTOL] has what recorded LDH? 176.8 IU/L

Item O=C(O)COc1nn(Cc2ccccc2)c2ccccc12 [BENDAZAC] has what recorded LDH? 80.6 IU/L

Item CC(=O)N1CCN(c2ccc(OCC3COC(Cn4ccnc4)(c4ccc(Cl)cc4Cl)O3)cc2)CC1 (stereo not given) [KETOCONAZOLE] has what recorded LDH? 211.2 IU/L

Item CC(C)Cc1ccc(C(C)C(=O)O)cc1 (stereo not given) [IBUPROFEN] has what recorded LDH? 235.4 IU/L

Item CC(CCc1ccccc1)NCC(O)c1ccc(O)c(C(N)=O)c1 (stereo not given) [LABETALOL] has what recorded LDH? 59 IU/L

###

Would you mind telling me the reported PL of each entry?
- Species on record: Rattus norvegicus
- TEST_DESCRIPTION: Open TG-GATES - Regimen: Daily Repeat
- Type: toxicity, organism-based, Sprague-Dawley
- Set-up: regimen Daily Repeat, gender Male, age 6 weeks
- CONDITION_SUMMARY: in vivo, po, 0 mg/kg, […], tissue Plasma, route gavage, dose level Control, time 7 day
Respond with the figure and its unit, in that order.

Item CC(N)=O [ACETAMIDE] has what recorded PL? 148.6 mg/dL

Item CC(CCc1ccccc1)NCC(O)c1ccc(O)c(C(N)=O)c1 (stereo not drawn) has what recorded PL? 149.2 mg/dL

Item CC[C@@H](CO)NCCN[C@@H](CC)CO has what recorded PL? 147.6 mg/dL

###

- Species on record: Rattus norvegicus
- TEST_DESCRIPTION: Open TG-GATES - Regimen: Daily Repeat
- Assay type: toxicity, organism-based, Sprague-Dawley
- Set-up: regimen Daily Repeat, gender Male, age 6 weeks
- CONDITION_SUMMARY: in vivo, po, 0 mg/kg, […], tissue Blood, route gavage, dose level Control, time 7 day
Would you mind telling me the reported Eos of each entry?
I only need the number, in %, no unit after it.

Item CC(=O)N1CCN(c2ccc(OCC3COC(Cn4ccnc4)(c4ccc(Cl)cc4Cl)O3)cc2)CC1 (centres undefined) has what recorded Eos? 1

Item CC(N)=O [ACETAMIDE] has what recorded Eos? 1

Item CC(C)Cc1ccc(C(C)C(=O)O)cc1 (centres undefined) has what recorded Eos? 0.8

Item CC(=O)Nc1ccc2c(c1)Cc1ccccc1-2 has what recorded Eos? 1

###

- Species: Rattus norvegicus
- TEST_DESCRIPTION: Open TG-GATES - Regimen: Daily Repeat
- Type: toxicity, organism-based, Sprague-Dawley
- Set-up: regimen Daily Repeat, gender Male, age 6 weeks
- CONDITION_SUMMARY: in vivo, po, 0 mg/kg, […], tissue Plasma, route gavage, dose level Control, time 7 day
ENDPOINT_NAME: TG (mg/dL)
I only need the number, in mg/dL, no unit after it.

Item CC(=O)N1CCN(c2ccc(OCC3COC(Cn4ccnc4)(c4ccc(Cl)cc4Cl)O3)cc2)CC1 (stereo not drawn) has what recorded TG? 102.8

Item CC(C)Cc1ccc(C(C)C(=O)O)cc1 (stereo not drawn) has what recorded TG? 100.8

Item CCN(CC)N=O has what recorded TG? 102.8
